System: UACC-62 melanoma
Measurement Protocol: NCI tumour cell line growth inhibition, 48 h; in the data active = GI50 below about 0.43 µM; inactive = the rest
Choose the fitting class; nothing outside active, inactive is accepted.

[
  {
    "Molecule": "C=C(C)[C@@H]1CC[C@]2(CN)CC[C@]3(C)[C@H](CC[C@@H]4[C@@]5(C)CCCNC(C)(C)[C@@H]5CC[C@]43C)[C@@H]12",
    "Cat": "inactive"
  }
]

Dear all, I need the recorded test outcome for COC(=O)c1c2c(c(C)[n+]([O-])c1C)C(=O)C(NCc1ccc(Br)cc1)=CC2=O , thank you.
inactive

Dear all, I need the recorded test outcome for COc1ccc(CNc2c3ccccc3nc3ccccc23)cc1F , thank you.
inactive

Dear all, I need the recorded test outcome for COc1cc2c(cc1OCCCN1CCN(CCCOc3cc4c(cc3OC)C(=O)N3CC(F)(F)C[C@H]3C=N4)CC1)N=C[C@@H]1CC(F)(F)CN1C2=O , thank you.
inactive

Dear all, I need the recorded test outcome for CCSc1nc(N=Cc2ccccc2O)c2cn[nH]c2n1 , thank you.
inactive

Dear all, I need the recorded test outcome for Cc1nc2c(Br)cc(Br)cc2c(=O)n1-c1nnc(-c2cccc(Cl)c2Cl)c(N)n1 , thank you.
inactive

Dear all, I need the recorded test outcome for Cc1cccc(NC2=C(Cl)C(=O)c3nc(C)ccc3C2=O)c1 , thank you.
inactive

Dear all, I need the recorded test outcome for COc1cc2c(cc1OCCCCCN1CCN(c3ncnc4ccccc34)CC1)N=CC1CCCN1C2=O (stereo not drawn) , thank you.
active

Dear all, I need the recorded test outcome for COc1ccc(-c2c(C#N)c(N3CCOCC3)nc3[nH]c(=S)[nH]c(=S)c23)cc1OC , thank you.
inactive

Dear all, I need the recorded test outcome for NC(=O)c1cc(I)ccc1NC(=O)/C=C/c1ccccc1 , thank you.
inactive

Dear all, I need the recorded test outcome for O=C(Nc1ncc(Cc2cccc(C(F)(F)F)c2)s1)c1ccc2c(c1)OCCO2 , thank you.
active

Dear all, I need the recorded test outcome for CNCCCNc1ccnc2cc(Cl)ccc12 , thank you.
inactive

Dear all, I need the recorded test outcome for CCCCNCCCNCCCNC(=O)c1csc(-c2csc(CCNC(=O)C(NC(=O)C(C)C(O)C(C)NC(=O)C(NC(=O)c3nc(C(CC(N)=O)NCC(N)C(N)=O)nc(N)c3C)C(OC3OC(CO)C(O)C(O)C3OC3OC(CO)C(O)C(OC(N)=O)C3O)c3cnc[nH]3)C(C)O)n2)n1 (stereo not drawn) , thank you.
inactive

* * *

Tested on: CAKI-1 renal
Measurement Protocol: NCI tumour cell line growth inhibition, 48 h
Where a SMILES comes first, the peptide text is derived from it. The star is where a group is joined. Palmitoyl = CCCCCCCCCCCCCCCC(=O)*
# reported GI50; entries follow

Some solved cases for reference:
[
  {
    "Compound": "COc1cc2c(cc1OCCCN1CCN(CCCOc3cc4c(cc3OC)C(=O)N3CC(F)(F)C[C@H]3C=N4)CC1)N=C[C@@H]1CC(F)(F)CN1C2=O",
    "GI50": "3.31 µM"
  },
  {
    "Compound": "CCCCCCCCCCCCCCCC(=O)N1CCCC1C(=O)NCC(=O)NC(Cc1ccccc1)C(=O)N1CCCC1C(=O)NC(CO)C(=O)NC(Cc1ccc(O)cc1)C(=O)NC(CCCCN)C(=O)NC(CC(C)C)C(=O)NC(CCCN=C(N)N)C(=O)N1CCCC1C(=O)NCC(N)=O (stereo unspecified) (Palmitoyl-PGFPSYKLRPG-NH2; configuration not given here)",
    "GI50": "20.9 µM"
  },
  {
    "Compound": "NC(=S)N/N=C/c1ncccc1O",
    "GI50": "2.59 µM"
  },
  {
    "Compound": "C=CC12CCN(CC1)C(C(O)c1ccnc3ccc(OC)cc13)C2 (stereo unspecified)",
    "GI50": "> 100 µM"
  },
  {
    "Compound": "COC(=O)C1=CN(CC2=CC(=O)C(C)=CC2=O)C=C(C(=O)OC)C1c1ccccc1OC",
    "GI50": "16.7 µM"
  }
]

Now, please, on to the next compound.
Provide the documented GI50 with CAKI-1 renal as the system for C=CC1(C)CC(=O)C2(O)C(C)(O1)C(OC(C)=O)C(O)C1C(C)(C)CCC(O)C12C (stereo unspecified)
> 55.2 µM

* * *

# reported TGI; entries follow
Tested on: HOP-62 NSCLC
Measurement Protocol: NCI tumour cell line growth inhibition, 48 h
Your answer should be a plain number; it is taken to be in µM.

Some solved cases for reference:
[
  {
    "Smiles Structure": "C/C1=C\\[C@H](C)C[C@H](C)OC(=O)[C@H](C)NC(=O)[C@@H](Cc2ccc(O)c(Br)c2)N(C)C(=O)[C@H](C)NC(=O)[C@@H](C)C1",
    "Unit Of Measure": "µM",
    "TGI": 0.112
  },
  {
    "Smiles Structure": "O=C(OCC(Cl)(Cl)Cl)N1CC[C@H](C2CCCCC2)C1",
    "Unit Of Measure": "µM",
    "TGI": 32.8
  }
]

Now, please, on to the next compound.
Please look up its TGI: COc1ccc2c(=O)oc3c(OC)cc(CCN(C)C)c4c(=O)oc1c2c34
28.7

* * *

Tested on: SNB-75 CNS
Measurement Protocol: NCI tumour cell line growth inhibition, 48 h
Value Kind: GI50

[
  {
    "Molecule": "O=c1cccc(C#CC#C[C@@H]2O[C@H]2CO)o1",
    "Test Result": "434 nM"
  },
  {
    "Molecule": "CCCCCCn1c(-c2ccc(C(=O)O/N=C(\\N)c3ccc4c(c3)OCO4)cc2)nc(-c2ccccc2)c1-c1ccccc1",
    "Test Result": "1700 nM"
  },
  {
    "Molecule": "COc1cccc2c1O/C(=C\\c1ccc([N+](=O)[O-])s1)C2=O",
    "Test Result": "2330 nM"
  }
]

Please look up its GI50: COc1cc(/C=C2\CCCCC3=C2N=C2SC(C)=CN2C3c2cc(OC)c(OC)c(OC)c2)cc(OC)c1OC (centres undefined)
1900 nM

Please look up its GI50: C=CC12CCN(CC1)C(C(O)c1ccnc3ccc(OC)cc13)C2 (centres undefined)
95300 nM

Please look up its GI50: OC(c1cc2cc(Cl)ccc2c2cc(C(F)(F)F)ccc12)C1CCCCN1 (centres undefined)
1690 nM

* * *

System: DU-145 prostate
Measurement Protocol: NCI tumour cell line growth inhibition, 48 h; in the data active means GI50 below about 0.43 µM; inactive means the rest
Choose the fitting class; nothing outside active, inactive is accepted.

Dear all, I need the recorded test outcome for CCSc1nc(N=Cc2ccccc2O)c2cn[nH]c2n1 , thank you.
inactive

Dear all, I need the recorded test outcome for O=C(Nc1nc(-c2c[nH]c3ccccc23)cs1)c1n[nH]c(=O)c2ccccc12 , thank you.
inactive

Dear all, I need the recorded test outcome for CO[C@@H]1CC[C@]2(C)OC[C@H](C)[C@@H]3C[C@@H](C)[C@@H](OC(C)=O)[C@@H]4[C@H]3[C@@H]2O[C@H]4C[C@@]1(C)O , thank you.
inactive

Dear all, I need the recorded test outcome for COc1cccc2c1O/C(=C\c1ccc([N+](=O)[O-])s1)C2=O , thank you.
inactive

Dear all, I need the recorded test outcome for NC(=O)c1cc(I)ccc1NC(=O)/C=C/c1ccccc1 , thank you.
active

Dear all, I need the recorded test outcome for COc1nc(=O)n(C2C=CC(=O)O2)cc1F (stereo unspecified) , thank you.
inactive

Dear all, I need the recorded test outcome for COC(=O)/C=C/c1cc(OC(C)=O)c2c(c1)C(C(=O)OC)C(c1ccc(OC(C)=O)c(OC(C)=O)c1)O2 (stereo unspecified) , thank you.
active

Dear all, I need the recorded test outcome for CCN(CCNS(C)(=O)=O)c1ccc(N)c(C)c1 , thank you.
inactive

* * *

Tested on: DU-145 prostate
Measurement Protocol: NCI tumour cell line growth inhibition, 48 h; in the data active = GI50 below about 0.43 µM; inactive = the rest
Choose the fitting class; nothing outside active, inactive is accepted.

For orientation, consider the following solved cases.
[
  {
    "Smiles Structure": "O=C(Nc1ncc(Cc2cccc(C(F)(F)F)c2)s1)c1ccc2c(c1)OCCO2",
    "Cat": "active"
  },
  {
    "Smiles Structure": "O=c1[nH]c(O)c(C=Nc2ccc(-c3nc4ccccc4o3)cc2)c(=O)[nH]1",
    "Cat": "inactive"
  },
  {
    "Smiles Structure": "COc1ccc(-c2c(C#N)c(N3CCOCC3)nc3[nH]c(=S)[nH]c(=S)c23)cc1OC",
    "Cat": "inactive"
  },
  {
    "Smiles Structure": "NCCCn1c2c(c3ccc([N+](=O)[O-])cc3c1=O)C(=O)c1cc(I)ccc1-2",
    "Cat": "active"
  }
]

Dear all, I need the recorded test outcome for O=c1[nH]c(-c2cccc(F)c2)cc2cc(F)ccc12 , thank you.
inactive

* * *

Tested on: KM12 colon
Measurement Protocol: NCI tumour cell line growth inhibition, 48 h
# reported TGI; entries follow

[
  {
    "Compound": "CCCCCCCC(=O)OCC1OC(n2cc(F)c(=O)[nH]c2=O)C(N)C(OC(=O)CCCCCCC)C1O (configuration not stated)",
    "TGI": "42.3 µM"
  },
  {
    "Compound": "O=C(O)c1cccc(S(=O)(=O)NN2C(=O)CSC2c2ccc(Cl)cc2Cl)c1 (configuration not stated)",
    "TGI": "> 100 µM"
  },
  {
    "Compound": "O=C1/C(=C/c2ccc(Cl)cc2)CCCc2ccccc21",
    "TGI": "28.5 µM"
  },
  {
    "Compound": "COc1cc(Nc2ccc3c(c2)CCC3)nc(OC)n1",
    "TGI": "91.9 µM"
  },
  {
    "Compound": "CN(Cc1cnc2nc(N)nc(N)c2n1)c1ccc(C(=O)N[C@@H](CCS(=O)(=O)O)C(=O)O)cc1",
    "TGI": "> 100 µM"
  }
]

Please look up its TGI: O=c1[nH]c(-c2cccc(F)c2)cc2cc(F)ccc12
> 100 µM

Please look up its TGI: COc1ccc(N2C(=O)C3c4[nH]c5cc(C)ccc5c4C4CCC(C(C)(C)C)CC4C3C2=O)cc1 (configuration not stated)
> 10 µM

Please look up its TGI: COCOCCC#CCO
> 100 µM

Please look up its TGI: CCN(CC)c1ccc(/C=C/c2ccnc3ccccc23)cc1
> 100 µM

Please look up its TGI: c1ccc2c(c1)CCc1c(-c3ccncc3)n[nH]c1-2
55.7 µM

Please look up its TGI: O=C1C=C(Nc2ccc(Cl)cc2C(=O)c2ccccc2)c2ccccc2C1=O
> 100 µM

Please look up its TGI: Cc1cc(C)nc(NC(=S)Nc2ccc([N+](=O)[O-])cc2)c1
> 100 µM
